ASSAYED TARGET: cIAP1-BIR3 (Homo sapiens)
Construct: with either 100 nM XIAP-BIR3 or 6 nM cIAP1-BIR3
Sequence (Q13490 260-352 limits assumed): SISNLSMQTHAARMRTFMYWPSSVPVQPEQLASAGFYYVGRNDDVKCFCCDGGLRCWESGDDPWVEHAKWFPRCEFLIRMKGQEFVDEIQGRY
EXPERIMENT DESCRIPTION: Biacore SPR solution inhibition (competition with smac7mer peptide) binding assay, cIAP1-BIR3
MEASUREMENT CONTEXT: 6 nM cIAP1-BIR3, competition with immobilised smac7mer peptide, 25° C.; read-out: CIAP-BIR3 Binding Biacore (Competitive) EC50
QUANTITY: pEC50
In textbook form, pEC50 equals minus log to base ten of the concentration in mol/L.

[ask] Give cIAP1-BIR3 (Homo sapiens) pEC50 for `CN[C@@H](C)C(=O)N[C@H](C(=O)N1CCC[C@H]1c1cncc(-n2ccc3c(C(=O)NCc4ccc(CNC(=O)c5cccc6c5ccn6-c5cncc([C@@H]6CCCN6C(=O)[C@@H](NC(=O)[C@H](C)NC)C(C)C)c5)cc4)cccc32)c1)C(C)C`
[reply] 8.91

----------
ASSAYED TARGET: XIAP-BIR3 (Homo sapiens, UniProt P98170)
Construct: with either 100 nM XIAP-BIR3 or 6 nM cIAP1-BIR3
Sequence (P98170 241-356 limits assumed): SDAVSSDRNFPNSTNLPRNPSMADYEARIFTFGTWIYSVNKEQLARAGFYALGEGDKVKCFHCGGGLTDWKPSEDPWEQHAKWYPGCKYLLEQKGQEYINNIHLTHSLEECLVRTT
EXPERIMENT DESCRIPTION: Biacore SPR solution inhibition (competition with smac7mer peptide) binding assay, XIAP-BIR3
MEASUREMENT CONTEXT: 100 nM XIAP-BIR3, competition with immobilised smac7mer peptide, 25° C.; read-out: XIAP-BIR3 Binding Biacore (Competitive) EC50
QUANTITY: EC50 (nM)
Kindly answer with a numeric value in nM, unit omitted.

CN[C@@H](C)C(=O)N[C@H](C(=O)N1CCC[C@H]1c1cncc(-n2cc(C(=O)N3CCN(C(=O)c4cn(-c5cncc([C@@H]6CCCN6C(=O)[C@@H](NC(=O)[C@H](C)NC)C(C)C)c5)c5ccccc45)CC3)c3ccccc32)c1)C(C)C [Example 2O]; 39

Continue with the next compound.
[ask] Entry [2H]C([2H])([2H])N[C@@H](C)C(=O)N[C@H](C(=O)N1CCC[C@H]1c1cncc(-n2ccc3c(C(=O)NCCCOCCOCCCNC(=O)c4cccc5c4ccn5-c4cncc([C@@H]5CCCN5C(=O)[C@@H](NC(=O)[C@H](C)NC([2H])([2H])[2H])C(C)C)c4)cccc32)c1)C(C)C [Example 3A] has what EC50?
[reply] 44.7

----------
ASSAYED TARGET: XIAP-BIR3 (Homo sapiens, UniProt P98170)
Construct: with either 100 nM XIAP-BIR3 or 6 nM cIAP1-BIR3
EXPERIMENT DESCRIPTION: Biacore SPR solution inhibition (competition with smac7mer peptide) binding assay, XIAP-BIR3
MEASUREMENT CONTEXT: 100 nM XIAP-BIR3, competition with immobilised smac7mer peptide, 25° C.; read-out: XIAP-BIR3 Binding Biacore (Competitive) EC50
QUANTITY: EC50

Examples with their reported EC50 follow.
CN[C@@H](C)C(=O)N[C@H](C(=O)N1CCC[C@H]1c1cncc(-n2cc(C(=O)NCCCCNC(=O)c3cn(-c4cncc([C@@H]5CCCN5C(=O)[C@@H](NC(=O)[C@H](C)NC)C(C)C)c4)c4ccccc34)c3ccccc32)c1)C(C)C; 19.3 to 19.5 nM
CN[C@@H](C)C(=O)N[C@H](C(=O)N1CCC[C@H]1c1cncc(-n2ccc3c(C(=O)NCCCOCCOCCCNC(=O)c4cccc5c4ccn5-c4cncc([C@@H]5CCCN5C(=O)[C@@H](NC(=O)[C@H](C)NC)C(C)C)c4)cccc32)c1)C(C)C; 34.5 to 56.9 nM
CN[C@@H](C)C(=O)N[C@H](C(=O)N1CCC[C@H]1c1cncc(-n2cc(C(=O)N[C@H]3CC[C@H](NC(=O)c4cn(-c5cncc([C@@H]6CCCN6C(=O)[C@@H](NC(=O)[C@H](C)NC)C(C)C)c5)c5ccccc45)CC3)c3ccccc32)c1)C(C)C; 26.1 to 26.4 nM

Now take the following compound into account.
[ask] I am curious: what EC50 value has been reported for `CN[C@@H](C)C(=O)N[C@H](C(=O)N1CCC[C@H]1c1cncc(-n2ccc3c(C(=O)NCc4ccc(CNC(=O)c5cccc6c5ccn6-c5cncc([C@@H]6CCCN6C(=O)[C@@H](NC(=O)[C@H](C)NC)C(C)C)c5)cc4)cccc32)c1)C(C)C` ?
[reply] 56.8 to 57 nM

----------
ASSAYED TARGET: XIAP-BIR3 (Homo sapiens, UniProt P98170)
Construct: with either 100 nM XIAP-BIR3 or 6 nM cIAP1-BIR3
EXPERIMENT DESCRIPTION: Biacore SPR solution inhibition (competition with smac7mer peptide) binding assay, XIAP-BIR3
MEASUREMENT CONTEXT: 100 nM XIAP-BIR3, competition with immobilised smac7mer peptide, 25° C.; read-out: XIAP-BIR3 Binding Biacore (Competitive) EC50
pEC50: −log10 of the molar value.
QUANTITY: pEC50

CN[C@@H](C)C(=O)N[C@H](C(=O)N1CCC[C@H]1c1cncc(-n2cc(C(=O)NCc3ccc(CNC(=O)c4cn(-c5cncc([C@@H]6CCCN6C(=O)[C@@H](NC(=O)[C@H](C)NC)C(C)C)c5)c5ccccc45)cc3)c3ccccc32)c1)C(C)C; 7.15
CN[C@@H](C)C(=O)N[C@H](C(=O)N1CCC[C@H]1c1cncc(-n2ccc3c(C(=O)NCCCNC(=O)c4cccc5c4ccn5-c4cncc([C@@H]5CCCN5C(=O)[C@@H](NC(=O)[C@H](C)NC)C(C)C)c4)cccc32)c1)C(C)C; 7.15

----------
Listed here: items and their measured EC50.
ASSAYED TARGET: cIAP1-BIR3 (Homo sapiens)
Construct: with either 100 nM XIAP-BIR3 or 6 nM cIAP1-BIR3
EXPERIMENT DESCRIPTION: Biacore SPR solution inhibition (competition with smac7mer peptide) binding assay, cIAP1-BIR3
MEASUREMENT CONTEXT: 6 nM cIAP1-BIR3, competition with immobilised smac7mer peptide, 25° C.; read-out: CIAP-BIR3 Binding Biacore (Competitive) EC50

CN[C@@H](C)C(=O)N[C@H](C(=O)N1CCC[C@H]1c1cncc(-n2cc(C(=O)NCCCCCCNC(=O)c3cn(-c4cncc([C@@H]5CCCN5C(=O)[C@@H](NC(=O)[C@H](C)NC)C(C)C)c4)c4ccccc34)c3ccccc32)c1)C(C)C; 1.71 to 1.73 nM

[ask] # lookup: EC50 of `CN[C@@H](C)C(=O)N[C@H](C(=O)N1CCC[C@H]1c1cncc(-n2cc(C(=O)NCCCCCCCCCCCNC(=O)c3cn(-c4cncc([C@@H]5CCCN5C(=O)[C@@H](NC(=O)[C@H](C)NC)C(C)C)c4)c4ccccc34)c3ccccc32)c1)C(C)C`
[reply] 1 to 1.02 nM

[ask] Same question for `CN[C@@H](C)C(=O)N[C@H](C(=O)N1CCC[C@H]1c1cncc(-n2ccc3c(C(=O)NCCCOCCOCCCNC(=O)c4cccc5c4ccn5-c4cncc([C@@H]5CCCN5C(=O)[C@@H](NC(=O)[C@H](C)NC)C(C)C)c4)cccc32)c1)C(C)C` please.
[reply] 0.24 to 0.57 nM

----------
ASSAYED TARGET: XIAP-BIR3 (Homo sapiens, UniProt P98170)
Construct: with either 100 nM XIAP-BIR3 or 6 nM cIAP1-BIR3
EXPERIMENT DESCRIPTION: Biacore SPR solution inhibition (competition with smac7mer peptide) binding assay, XIAP-BIR3
MEASUREMENT CONTEXT: 100 nM XIAP-BIR3, competition with immobilised smac7mer peptide, 25° C.; read-out: XIAP-BIR3 Binding Biacore (Competitive) EC50
pEC50: −log10 of the molar value.
QUANTITY: pEC50

CN[C@@H](C)C(=O)N[C@H](C(=O)N1CCC[C@H]1c1cncc(-n2cc(C(=O)NCCCOCCCNC(=O)c3cn(-c4cncc([C@@H]5CCCN5C(=O)[C@@H](NC(=O)[C@H](C)NC)C(C)C)c4)c4ccccc34)c3ccccc32)c1)C(C)C; 7.68 to 7.71

Here's the next entry for you.
[ask] Could you tell me which pEC50 is on file for `CN[C@@H](C)C(=O)N[C@H](C(=O)N1CCC[C@H]1c1cncc(-n2cc(C(=O)NCCCOCCOCCOCCOCCOCCCNC(=O)c3cn(-c4cncc([C@@H]5CCCN5C(=O)[C@@H](NC(=O)[C@H](C)NC)C(C)C)c4)c4ccccc34)c3ccccc32)c1)C(C)C` ?
[reply] 7.23 to 7.29

----------
ASSAYED TARGET: cIAP1-BIR3 (Homo sapiens)
Construct: with either 100 nM XIAP-BIR3 or 6 nM cIAP1-BIR3
EXPERIMENT DESCRIPTION: Biacore SPR solution inhibition (competition with smac7mer peptide) binding assay, cIAP1-BIR3
MEASUREMENT CONTEXT: 6 nM cIAP1-BIR3, competition with immobilised smac7mer peptide, 25° C.; read-out: CIAP-BIR3 Binding Biacore (Competitive) EC50
pEC50: −log10 of the molar value.
QUANTITY: pEC50

CN[C@@H](C)C(=O)N[C@H](C(=O)N1CCC[C@H]1c1cncc(-n2ccc3c(C(=O)NCCCNC(=O)c4cccc5c4ccn5-c4cncc([C@@H]5CCCN5C(=O)[C@@H](NC(=O)[C@H](C)NC)C(C)C)c4)cccc32)c1)C(C)C; 8.77 to 8.78
CN[C@@H](C)C(=O)N[C@H](C(=O)N1CCC[C@H]1c1cncc(-n2ccc3c(C(=O)N[C@H]4CCCC[C@@H]4NC(=O)c4cccc5c4ccn5-c4cncc([C@@H]5CCCN5C(=O)[C@@H](NC(=O)[C@H](C)NC)C(C)C)c4)cccc32)c1)C(C)C; 8.91 to 8.92
CN[C@@H](C)C(=O)N[C@H](C(=O)N1CCC[C@H]1c1cncc(-n2cc(C(=O)NCc3ccc(CNC(=O)c4cn(-c5cncc([C@@H]6CCCN6C(=O)[C@@H](NC(=O)[C@H](C)NC)C(C)C)c5)c5ccccc45)cc3)c3ccccc32)c1)C(C)C; 8.91 to 8.92

Moving on to another molecule below.
[ask] Could you share what pEC50 was measured for `CN[C@@H](C)C(=O)N[C@H](C(=O)N1CCC[C@H]1c1cncc(-n2cc(C(=O)NCCCCNC(=O)c3cn(-c4cncc([C@@H]5CCCN5C(=O)[C@@H](NC(=O)[C@H](C)NC)C(C)C)c4)c4ccccc34)c3ccccc32)c1)C(C)C` , tested on cIAP1-BIR3 (Homo sapiens)?
[reply] 8.94 to 8.95

Data origin: patent US8993523B2
